assay: Cytotoxicity against human A549 cells assessed as cell viability at 0.9 uM after 48 hrs by MTT assay relative to control; type: cell-based; settings: read-out: Activity
MEASURED_ATTRIBUTE: viability at 48 h, 0.9 µM (%)
Kindly answer with a numeric value in %, unit omitted.

Query block: Could you tell me which viability at 48 h, 0.9 µM is on file for Cl.O=C(NCCCNc1c2c(nc3ccccc13)CCCC2)c1cnc(Cl)c(Cl)c1 ?
Result block: 82.3

###

assay: Cytotoxicity against human A549 cells assessed as cell viability at 2.3 uM after 48 hrs by MTT assay relative to control; format: cell-based; settings: read-out: Activity
MEASURED_ATTRIBUTE: viability at 48 h, 2.3 µM (%)
Kindly answer with a numeric value in %, unit omitted.

Query block: Could you tell me which viability at 48 h, 2.3 µM is on file for Cl.O=C(NCCCNc1c2c(nc3ccccc13)CCCC2)c1cnc(Cl)c(Cl)c1 ?
Result block: 46

###

// Acetylcholinesterase (Electrophorus electricus) pIC50 records
Note: pIC50 values are expressed as the negative base-10 logarithm of concentration in M.

INSERT INTO assay_data (smiles_record, assay_system, endpoint_value) VALUES
  ('O=C(NCCNc1c2c(nc3ccccc13)CCCC2)c1cnc(Cl)c(Cl)c1', 'Acetylcholinesterase (Electrophorus electricus)', 7.78),
  ('O=C(NCCCCCCCCCNc1c2c(nc3ccccc13)CCCC2)c1cnc(Cl)c(Cl)c1', 'Acetylcholinesterase (Electrophorus electricus)', 8.51),
  ('O=C(NCCCCCCCNc1c2c(nc3ccccc13)CCCC2)c1cnc(Cl)c(Cl)c1', 'Acetylcholinesterase (Electrophorus electricus)', 7.91),
  ('O=C(NCCCCCCNc1c2c(nc3ccccc13)CCCC2)c1cnc(Cl)c(Cl)c1', 'Acetylcholinesterase (Electrophorus electricus)', 8.38),
  ('O=C(NCCCCNc1c2c(nc3ccccc13)CCCC2)c1cnc(Cl)c(Cl)c1', 'Acetylcholinesterase (Electrophorus electricus)', 8.78);

Query block: Could you tell me which pIC50 is on file for O=C(NCCCCCCCCNc1c2c(nc3ccccc13)CCCC2)c1cnc(Cl)c(Cl)c1 ?
Result block: 7.99

Query block: Could you tell me which pIC50 is on file for O=C(NCCCCCNc1c2c(nc3ccccc13)CCCC2)c1cnc(Cl)c(Cl)c1 ?
Result block: 8.54

Query block: Could you tell me which pIC50 is on file for Cl.O=C(NCCCNc1c2c(nc3ccccc13)CCCC2)c1cnc(Cl)c(Cl)c1 ?
Result block: 8.99

###

tested on: AChE (electric eel); assay: Selectivity index, ratio of IC50 for human A549 cells to IC50 for electric eel AChE; format: toxicity; details: read-out: Ratio IC50
MEASURED_ATTRIBUTE: selectivity ratio
Returns: the value as a bare number; no unit string appended.

Query block: Could you tell me which selectivity ratio is on file for Cl.O=C(NCCCNc1c2c(nc3ccccc13)CCCC2)c1cnc(Cl)c(Cl)c1 ?
Result block: 1960

###

tested on: BuChE (equine serum); experiment: Selectivity index, ratio of IC50 for human A549 cells to IC50 for equine serum BuChE; format: toxicity; conditions: read-out: Ratio IC50
MEASURED_ATTRIBUTE: selectivity ratio
Returns: the value as a bare number; no unit string appended.

Query block: Could you tell me which selectivity ratio is on file for Cl.O=C(NCCCNc1c2c(nc3ccccc13)CCCC2)c1cnc(Cl)c(Cl)c1 ?
Result block: 13
